All values here come from PubChem BioAssay.

PROCEDURE_TEXT: E. coli acrAB mutant growth effects, primary screen, E. coli filamentation inducers, strain DRC39, OD650, 48 h (AID 1179);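 note: screen aims at cell division blockers that make cells filament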
CONDITION_CONTEXT: E. coli DRC39 delta-acrAB growth, higher = more signal, called active from +8 up or from −8 down
RESULT_TYPE: z-score

>>> df
                  compound_structure_string  result_type  experimental_value
0  CCc1cc2c(nc1CC)CCN(CCC(C)=NOCC[C@@H]1C=C[C@H](OC(C)=O)[C@@H](COC(C)=O)O1)C2      z-score               -1.33
1  O=C1[C@H]2CCn3c(=O)n(Cc4cc5c(cc4Cl)OCO5)c(=O)n3[C@H]2[C@H](O)[C@@H]2O[C@H]12      z-score               0.669
2  CC(C)(C)N1C(=O)[C@H]2[C@@H]3C(=CC[C@H]2C1=O)C(=O)[C@H]1O[C@H]1[C@H]3O      z-score              -0.613
3  CCOC(=O)CCN1C(=O)[C@H]2[C@H]3[C@H](O)[C@H](O)CC(=NO[C@@H]4O[C@H](CO)[C@@H](O)[C@H](O)[C@H]4O)[C@@H]3CC[C@H]2C1=O      z-score                0.79
